Hello, the source for this data is paper PMC10584170, in case you need it.

In this section we review reported inhibition at 2 µM values for a set of compounds.
system: P. falciparum female gametocytes; experiment: P. falciparum Dual Gamete Formation Assay (PfDGFA), female readout (Pfs25-positive female gametes); assay type: cell-based, Plasmodium falciparum NF54; conditions: Plasmodium falciparum; 2µM, 24h preincubation with gametocytes; average of replicates; read-out: Average inhibition female (%)
Return type: number; implicit unit %.

compound=O=C1SC(=Cc2ccc(O)c(O)c2)C(=O)N1c1ccccc1 assay_system="P. falciparum female gametocytes" unit_of_measure=% numeric_readout=28.5
compound=Cc1cccc(Nc2nc(N[C@@H]3CCCNC3)nc3cc[nH]c(=O)c23)c1.O=C(O)C(F)(F)F assay_system="P. falciparum female gametocytes" unit_of_measure=% numeric_readout=-0.142
compound=C#C[C@H]1O[C@@H](n2cnc3c(Nc4cc(Br)cc(C(F)(F)F)c4)ncnc32)[C@H](O)[C@@H]1O assay_system="P. falciparum female gametocytes" unit_of_measure=% numeric_readout=3.7
compound="[O-][s+]1c(Cl)c(-c2ccc(Cl)cc2)c2ccc(Cl)cc21 (stereo not shown)" assay_system="P. falciparum female gametocytes" unit_of_measure=% numeric_readout=46.7
compound=Cl.NCC1(c2nc(-c3ccc(Cl)c(O)c3)c(-c3ccncc3)[nH]2)CCCCC1 assay_system="P. falciparum female gametocytes" unit_of_measure=% numeric_readout=94.3

### Prompt Dear colleague, I am looking for the recorded inhibition at 2 µM of the following compound: Cc1cc(Nc2ccncc2)n2nc(C)c(-c3ccc(Cl)cc3)c2n1
### Response 2.4

### Prompt # lookup: inhibition at 2 µM of CNC(=O)c1ccccc1Nc1nc(Nc2ccc(N3CCN(C)CC3)nc2)ncc1C.Cl
### Response 0.025

### Prompt Reported inhibition at 2 µM for CC(C)(C)c1ccc(-c2nc3c(ccc4nc(N)nc(N)c43)[nH]2)cc1.Cl : what is it?
### Response 42.3

### Prompt Entry under review: N=C(N)NCCN(Cc1ccccc1)c1ccc(Cl)cc1 . Reported inhibition at 2 µM?
### Response 61.5
